Here, each record is paired with measured pIC50 data.
- Test system: WiDr
- runDescription: Cell proliferation assay (CellTiter-Glo)
- Format: cell-based
- conditions: Homo sapiens, Colon, 72 hours, 0.5% fetal bovine serum, read-out: antiproliferative activity IC50, WiDr
pIC50: −log10 of the molar value.
metricName: pIC50

{"compound": "CC(=O)Nc1ccc(-c2nc(N3CCOCC3)c3sc(CN(C)c4ncc(C(=O)NO)cn4)cc3n2)cc1", "reportedResult": "6.00 to 7.00"}
{"compound": "CNc1ncc(-c2nc(N3CCOCC3)c3sc(CN(C)c4ncc(C(=O)NO)cn4)cc3n2)cn1", "reportedResult": "7.00 to 8.00"}
{"compound": "CN(Cc1cc2nc(-c3cc(O)ccc3F)nc(N3CCOCC3)c2s1)c1ncc(C(=O)NO)cn1", "reportedResult": "7.00 to 8.00"}
{"compound": "CC(=O)Nc1ccc(-c2nc(N3CCOCC3)c3sc(CN(C)c4ncc(C(=O)NO)cn4)cc3n2)cn1", "reportedResult": "6.00 to 7.00"}
{"compound": "CN(Cc1cc2nc(-c3ccc(N)nc3)nc(N3CCOCC3)c2s1)c1ncc(C(=O)NO)cn1", "reportedResult": "7.00 to 8.00"}
{"compound": "Cc1ncc(-c2nc(N3CCOCC3)c3sc(CN(C)c4ncc(C(=O)NO)cn4)cc3n2)cn1", "reportedResult": "7.00 to 8.00"}
{"compound": "CN(Cc1cc2nc(-c3cccc(OCCO)c3)nc(N3CCOCC3)c2s1)c1ncc(C(=O)NO)cn1", "reportedResult": "> 8.00"}
{"compound": "CN(Cc1cc2nc(-c3ccc4[nH]cnc4c3)nc(N3CCOCC3)c2s1)c1ncc(C(=O)NO)cn1", "reportedResult": "7.00 to 8.00"}
{"compound": "CN(Cc1cc2nc(-c3ccc(N)cc3Cl)nc(N3CCOCC3)c2s1)c1ncc(C(=O)NO)cn1", "reportedResult": "7.00 to 8.00"}
{"compound": "CC(O)c1cccc(-c2nc(N3CCOCC3)c3sc(CN(C)c4ncc(C(=O)NO)cn4)cc3n2)c1 (centres unmarked)", "reportedResult": "7.00 to 8.00"}
{"compound": "CN(Cc1cc2nc(-c3ccc(N)cc3)nc(N3CCOCC3)c2s1)c1ncc(C(=O)NO)cn1", "reportedResult": "7.00 to 8.00"}
